FYI, the data here is from the EternaBench riboswitch data.

# Test system: MS2 coat protein
# protocolSummary: apparent Kd, MS2 coat protein; higher = weaker binding; RNA-MaP array
# conditionSummary: designed as: ON switch for flavin mononucleotide; no ligand

querySequence | units | apparent Kd
UAACAUGAGGAUCACCCAUGUAACCAUCUCCAAGUCGGUAGGCAGGAUAUGUACAUAAUGGAAGAACAGAAGGGCCGGUCCGAG | µM | 0.0311
CCGCGACAUGAGGAUCACCCAUGUGAUUUGACCUCCGGCACGAGAAGGUUCCGACCAAACGGCCGAAAGGAUAUCGUCCCAGAG | µM | 0.0641
AACUGUAAUACAAGAACAUGAGGAUCACCCAUGUGUCGCGCAGAGGAUAUACUGGUUCGCUGUCCGUAGAAGGCUGAGCACAUG | µM | 0.0339

---

# Test system: MS2 coat protein
# protocolSummary: apparent Kd, MS2 coat protein; higher = weaker binding; RNA-MaP array
# conditionSummary: designed as: ON switch for flavin mononucleotide; no ligand
Param threshold (20 nM) applies to apparent Kd; output Met when value >= threshold, Not met when value < threshold.

querySequence | answerLabel
CGACAUAACCGAGGAUAUCGCUGACGUAAGCACAUGAGGAUCACCCAUGUGAGUGAGAGUGAGUACGAGAAGGCGGAAUUAAGG | Met
UCAUGAAAGUCAGGAUAUGGCCACAUGAGGAUCACCCAUGUUUGCUUUAUCGAGCGAAACUGAGACCAGAAGGGACGGACAUUC | Met
CUGCAGACCCAGAAGGUUCACAUGAGGAUCACCCAUGUGCCUAUCAAUAAGUAAGGUAAAGGCUGAAAGGAUAUGGGUAAAGGA | Not met
UCACUCUGCCGAGGAUAUGCUGGGUCUGACAUGAGGAUCACCCAUGUAACGGGCAGAGUGUUCCAGCAGAAGGCGGCCAGUACC | Met
GGAAUCGGAUUAGAGGAUAUCGAUCUGUUAACAUGAGGAUCACCCAUGUGGACGCUUCAUUCGAACGAGAAGGCUAGAUGGACACC | Met
AAUAGAGAGCAGAAGGCCCUAGUUAUCGGCAUGGGAGGAUAUGCACCAGAUAAUAACAUGAGGAUCACCCAUGUUGAAUAAGAA | Not met
UGAUGUAACAGAGGAUAUCACUCAAAUGCGGGCAUGUCGCACAUGUACAUGAGGAUCACCCAUGUUGAGAAGGCUGUGGUGCAA | Met
CUGCUCUGUACUGAAGGAGAUACAUGAGGAUCACCCAUGUGCAGAAGGUGCUCAUUAAUAAUCGGCAAGGAUAUGCGGGCUUGA | Met
AUGAAAAGUACAGGAUAUAUAUAAACACAAAACGGACAUGAGGAUCACCCAUGUUGACGUUGUCAAUAGAAGGGUACCAACACA | Met
GUACCUCCUCAGAAGGCGCGUAGAGCCGGCACAUGAGGAUCACCCAUGUCGAGGCGAAAUGCAGGCGAGGAUAUGAAGGGUUUC | Not met
UACAUGAGGAUCACCCAUGUUUAUUGGUAGAACGGAUAAUGGGAGGAUAUGAACCGAUCAGAUCAUCAGAAGGCCCUUAAUGGG | Met
GUAAAACUGUAAGGAUAUGAUGAACUUUAACCCUCAGAAGGAACACCACAUGAGGAUCACCCAUGUUAGGAAAGCAACUUGUUG | Not met
GACAGAAGGUAGAAGGUGGUUCUCCUCACCCACUUUGAGGACAUGAGGAUCACCCAUGUCAAAACCAAGGAUAUACUACGUCGU | Met
